Tested on: NCI-H520
Experiment: relative viability (nuclei count vs DMSO), 5 days (fraction); higher = more cells survive
Settings: first compound 0.8 µM
Answer each item with its documented relative viability.
Output spec: single numeric token, no unit.

Lab book: relative viability of C=C1C(=O)O[C@@H](CCCCCCCC)[C@@H]1C(=O)O [C-75] + CC1(C)CCC(c2ccc(Cl)cc2)=C(CN2CCN(c3ccc(C(=O)NS(=O)(=O)c4ccc(N[C@H](CCN5CCOCC5)CSc5ccccc5)c(S(=O)(=O)C(F)(F)F)c4)cc3)CC2)C1 [Navitoclax] (partner 0.5 µM) noted as 1

Lab book: relative viability of Oc1nc(-c2ccc(C(F)(F)F)cc2)nc2c1CSCC2 [XAV939] + COc1cc2c(Oc3ccc(NC(=O)C4(C(=O)Nc5ccc(F)cc5)CC4)cc3F)ccnc2cc1OCCCN1CCOCC1 [Foretinib] (partner 0.25 µM) noted as 0.677

Lab book: relative viability of C=C1C(=O)O[C@@H](CCCCCCCC)[C@@H]1C(=O)O [C-75] + O=C(CCCCCCC(=O)Nc1ccccc1)NO [Vorinostat] (partner 1 µM) noted as 0.637

Lab book: relative viability of C=C1C(=O)O[C@@H](CCCCCCCC)[C@@H]1C(=O)O [C-75] + Cc1nc(Nc2ncc(C(=O)Nc3c(C)cccc3Cl)s2)cc(N2CCN(CCO)CC2)n1 [Dasatinib] (partner 0.075 µM) noted as 0.206

Lab book: relative viability of C=C1C(=O)O[C@@H](CCCCCCCC)[C@@H]1C(=O)O [C-75] + COc1cc2c(Oc3ccc(NC(=O)C4(C(=O)Nc5ccc(F)cc5)CC4)cc3F)ccnc2cc1OCCCN1CCOCC1 [Foretinib] (partner 0.25 µM) noted as 0.831

Lab book: relative viability of Oc1nc(-c2ccc(C(F)(F)F)cc2)nc2c1CSCC2 [XAV939] + N=C(N)NC(=N)NCCc1ccccc1 [Phenformin] (partner 250 µM) noted as 0.526

Lab book: relative viability of Oc1nc(-c2ccc(C(F)(F)F)cc2)nc2c1CSCC2 [XAV939] + COc1cccc2cc(-c3nc([C@H]4CC[C@H](C(=O)O)CC4)n4ncnc(N)c34)[nH]c12 [OSI-027] (partner 0.5 µM) noted as 0.224

Lab book: relative viability of Oc1nc(-c2ccc(C(F)(F)F)cc2)nc2c1CSCC2 [XAV939] + Cc1cc(Nc2cc(N3CCN(C)CC3)nc(Sc3ccc(NC(=O)C4CC4)cc3)n2)n[nH]1 [Tozasertib] (partner 0.1 µM) noted as 0.461

Lab book: relative viability of Oc1nc(-c2ccc(C(F)(F)F)cc2)nc2c1CSCC2 [XAV939] + Nc1ncn([C@H]2C[C@H](O)[C@@H](CO)O2)c(=O)n1 [Decitabine] (partner 2 µM) noted as 0.457

Lab book: relative viability of C=C1C(=O)O[C@@H](CCCCCCCC)[C@@H]1C(=O)O [C-75] + CC(=O)c1c(C)c2cnc(Nc3ccc(N4CCNCC4)cn3)nc2n(C2CCCC2)c1=O [Palbociclib] (partner 0.5 µM) noted as 0.225

Lab book: relative viability of C=C1C(=O)O[C@@H](CCCCCCCC)[C@@H]1C(=O)O [C-75] + C[C@@H](Oc1cc(-c2cnn(C3CCNCC3)c2)cnc1N)c1c(Cl)ccc(F)c1Cl [Crizotinib] (partner 1 µM) noted as 0.673
